target: uPAR (Homo sapiens); construct: Recombinant human uPAR^1–283 was expressed; made in house; host or cells: Drosophila melanogaster S2 cells; assay: SPR real-time binding kinetics, peptides in solution and immobilised uPAR; conditions: single cycle SPR, immobilised uPAR, 20 °C
Sequence (Q03405 23-305): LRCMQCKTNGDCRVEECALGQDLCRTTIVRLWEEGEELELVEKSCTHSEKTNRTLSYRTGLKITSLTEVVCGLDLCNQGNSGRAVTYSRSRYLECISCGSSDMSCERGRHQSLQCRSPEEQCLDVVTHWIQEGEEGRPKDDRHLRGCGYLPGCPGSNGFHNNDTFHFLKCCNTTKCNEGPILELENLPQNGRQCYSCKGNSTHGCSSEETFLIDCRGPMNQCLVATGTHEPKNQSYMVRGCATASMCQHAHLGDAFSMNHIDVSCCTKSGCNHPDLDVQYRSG
Positions of bridges follow the written chain, without caps; N, C: chain ends. Non-standard residues stand in square brackets, D forms with d. Residues, ends and D or L forms follow the SMILES beside them. *: point of attachment. DOTA = O=C(O)CN1CCN(CC(=O)O)CCN(CC(=O)*)CCN(CC(=O)O)CC1; Cha = N[C@@H](CC1CCCCC1)C(=O)O
property: koff (s⁻¹)
Numbers only, in s⁻¹.

Please review the entries below; each comes with its answer.
compound	experimental_result
CC(C)C[C@H](NC(=O)[C@H](Cc1ccc(O)cc1)NC(=O)[C@@H](CCCNC(=N)N)NC(=O)[C@@H](CO)NC(=O)[C@H](Cc1ccccc1)NC(=O)[C@H](CC1CCCCC1)NC(=O)[C@H](CC(=O)O)NC(=O)CN1CCN(CC(=O)O)CCN(CC(=O)O)CCN(CC(=O)O)CC1)C(=O)N[C@@H](Cc1c[nH]c2ccccc12)C(=O)N[C@@H](CO)C(=O)O	0.00557
CC(C)C[C@H](NC(=O)[C@H](Cc1ccc(O)cc1)NC(=O)[C@@H](CCCNC(=N)N)NC(=O)[C@@H](CO)NC(=O)[C@H](Cc1ccccc1)NC(=O)[C@H](CC1CCCCC1)NC(=O)[C@H](CC(=O)O)NC(=O)CNC(=O)CNC(=O)[C@@H](CO)NC(=O)CNC(=O)[C@H](CCC(=O)O)NC(=O)[C@H](CCC(=O)O)NC(=O)CN1CCN(CC(=O)O)CCN(CC(=O)O)CCN(CC(=O)O)CC1)C(=O)N[C@@H](Cc1c[nH]c2ccccc12)C(=O)N[C@@H](CO)C(N)=O [10b] ({DOTA}-EEG[dS]GGD[Cha]F[dS][dR]YLWS-NH2)	0.00137

Shifting focus to the compound that follows.
Entry CC(C)C[C@@H]1NC(=O)[C@H](Cc2ccc(O)cc2)NC(=O)[C@H](NC(=O)[C@@H](CO)NC(=O)[C@H](Cc2ccccc2)NC(=O)[C@H](CC2CCCCC2)NC(=O)[C@@H](N)CC(=O)O)CSSC[C@@H](C(N)=O)NC(=O)[C@H](Cc2c[nH]c3ccccc23)NC1=O [compound 9] (H-D[Cha]F[dS][dC]YLWC-NH2; disulfide 5-9; N-terminus assumed) : reported koff = ?
0.00206

The measured values listed here are drawn from paper PMC10567728.
